Measured Kd, listed per entry for reference.
tgt: T1, Plasmodium falciparum histidine-rich protein II (HRP-II) (Plasmodium falciparum, UniProt P05227 22-332)
T1 construct: Coating antigen of all ELISAs; also called HRP-II protein; MA-HRPII Ag protein
T1 sequence (looked up): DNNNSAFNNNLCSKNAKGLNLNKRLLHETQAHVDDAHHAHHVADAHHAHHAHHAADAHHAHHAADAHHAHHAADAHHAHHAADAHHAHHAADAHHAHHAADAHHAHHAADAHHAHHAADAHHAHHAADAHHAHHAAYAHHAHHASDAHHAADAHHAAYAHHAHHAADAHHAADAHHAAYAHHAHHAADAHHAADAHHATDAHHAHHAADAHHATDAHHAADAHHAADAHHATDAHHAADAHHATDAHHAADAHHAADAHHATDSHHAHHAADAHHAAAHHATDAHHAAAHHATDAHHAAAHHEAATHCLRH
test: indirect ELISA, four antigen coating concentrations;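 further: optical density read across an antibody dilution series at each antigen coating level, curves plotted on log scale, KD derived as reciprocal of the averaged constant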
Record the value in nM, omitting the unit from your answer.

Use the examples below as a reference point.
# binder, observedResult
data = [
    ("Mutation 1-9 (antibody, mouse IgG2b, kappa, V domains shown, Mutation 1 as framework) VH: EVQLQQSGPEVVKPGASVKISCKASGYTLTDYYMNWVKQSHGKGLEWIGDLNPIQGGTAYNQKFRDKATLTVDKSSNTAYMELRSLTSEDSALYYCTRGAEDYWGQGTTLTVSS VL: DVVLTQTPLSLSVTIGQPASISCKSSQSIIYSQGKIYLNWFQQRPGQSPKRLMYQLSKLEPGIPDRFSGSGSETDFTLKISRVEAEDLGVYYCLQGTYSPQTFGGGTKLEIKR", 0.0645),
    ("Mutation 1-2 (antibody, mouse IgG2b, kappa, V domains shown, Mutation 1 as framework) VH: EVQLQQSGPEVVKPGASVKISCKASGSTLTDYYMNWVKQSHGKGLEWIGDVNPIQGGTAYQQKFRDKATLTVDKSSNTAYMELRSLTSEDSALYYCTKGAEDYWGQGTTLTVSS VL: DVVLTQTPLSLSVTIGQPASISCKSSQSLLYSNGKIYLNWFQQRPGQSPKRLMYQLSKLDPGIPDRFSGSGSETDFTLKISRVEAEDLGVYYCLQATYTPQTFGGGTKLEIKR", 0.0903),
]

Turning now to a further record.
Name the reported Kd value associated with the binder Mutation 1-41 (antibody, mouse IgG2b, kappa, V domains shown, Mutation 1 as framework) VH: EVQLQQSGPEVVKPGASVKISCKASGYTLTDYYMNWVKQSHGKGLEWIGDVNPINGGTAYQQKFRDKATLTVDKSSNTAYMELRSLTSEDSALYYCTKGAEDYWGQGTTLTVSS VL: DVVLTQTPLSLSVTIGQPASISCKSSQSILYSNGKIYLNWFQQRPGQSPKRLMYQVSKLEPGIPDRFSGSGSETDFTLKISRVEAEDLGVYYCLQATYYPQTFGGGTKLEIKR 0.302
